- run-description: Inhibition of wild type Gyrodactylus kobayashii Myosin ATPase activity incubated for 30 mins
Here the recorded pIC50 is given for each entry.
// scale note: pIC50 = -log10(conc_M); give the bare number

Consider the following illustrative entries.
[[record]]
compound = "O=C(/C=C/c1ccccc1)c1ccccc1 [CHALCONE]"
value_reported = 3.36

[[record]]
compound = "COc1cc(C[C@H]2C(=O)OC[C@@H]2Cc2ccc(OC)c(OC)c2)ccc1O [ARCTIGENIN]"
value_reported = 3.17


Consider the record given below.
Query :: Can you share its pIC50? I mean this compound: CC(C)=CC[C@@H](O)C1=CC(=O)c2c(O)ccc(O)c2C1=O [SHIKONIN]
Result :: 3.85

Where do these numbers come from? They come from ChEMBL document CHEMBL5512643.
